B1: KCNG1 (parent)
chain: AVNLSVSTLPSLREEEEQVRAHAP

variants of: B1; test: protein stability index of a GFP-peptide fusion (GPS, HEK-293T) (PSI 1-6); higher = more stable; conditions: c terminus: a fixed tail appended;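 note: lentivirally expressed fusions sorted by FACS into six bins by GFP to DsRed ratio, PSI derived from sequencing read proportions per bin multiplied by bin number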
The reader will find reported protein stability index values listed item by item below.
Response field accepts a number only; no unit should be typed.

Worked examples follow.
V6Q | 5.24
V19Q | 5.24
E16P | 3.96
P10D | 5.06
L4V | 5.01
A21P | 4.97

**Q:** Report protein stability index for `S5P`
**A:** 5.36
